# MEASURED TARGET: CSF1R (Homo sapiens)
# Sequence (P07333 20-972): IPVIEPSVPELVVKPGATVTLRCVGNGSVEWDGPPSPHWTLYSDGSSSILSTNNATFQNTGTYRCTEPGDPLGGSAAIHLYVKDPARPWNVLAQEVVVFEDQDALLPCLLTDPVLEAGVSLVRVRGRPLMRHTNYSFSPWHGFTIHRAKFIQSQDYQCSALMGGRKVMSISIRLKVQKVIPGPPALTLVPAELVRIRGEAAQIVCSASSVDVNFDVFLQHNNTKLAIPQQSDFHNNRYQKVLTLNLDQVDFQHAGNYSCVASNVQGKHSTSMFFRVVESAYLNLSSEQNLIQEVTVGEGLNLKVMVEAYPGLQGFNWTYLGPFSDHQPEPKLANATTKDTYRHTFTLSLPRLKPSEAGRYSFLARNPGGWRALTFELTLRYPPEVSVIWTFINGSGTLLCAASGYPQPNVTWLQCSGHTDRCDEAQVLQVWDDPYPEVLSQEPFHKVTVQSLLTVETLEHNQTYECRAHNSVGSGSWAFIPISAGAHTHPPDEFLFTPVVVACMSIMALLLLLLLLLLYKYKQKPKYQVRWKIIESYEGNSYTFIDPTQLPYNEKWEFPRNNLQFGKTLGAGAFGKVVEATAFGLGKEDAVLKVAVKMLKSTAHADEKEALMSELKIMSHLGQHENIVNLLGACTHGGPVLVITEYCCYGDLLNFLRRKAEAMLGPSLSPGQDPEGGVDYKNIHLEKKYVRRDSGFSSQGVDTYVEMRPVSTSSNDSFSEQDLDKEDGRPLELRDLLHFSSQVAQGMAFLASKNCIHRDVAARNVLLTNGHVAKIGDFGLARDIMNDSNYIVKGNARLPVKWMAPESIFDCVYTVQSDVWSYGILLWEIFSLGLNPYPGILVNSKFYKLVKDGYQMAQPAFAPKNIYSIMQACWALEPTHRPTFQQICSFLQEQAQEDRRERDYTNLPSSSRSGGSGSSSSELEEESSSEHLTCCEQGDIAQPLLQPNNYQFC
# METHOD NOTES: CSF1R enzymatic inhibitory assay, LANCE Ultra TR-FRET (Perkin Elmer)
# Assay type: biochemical
# EXPERIMENTAL CONDITIONS: LANCE Ultra assay; ATP level 25 μM
# Experimental: CSF1R enzymatic inhibitory assay The compounds were supplied in a 10 mM DMSO solution, and enzymatic CSF1R inhibition potency was determined by Invitrogen (ThermoFisher) using their Z’-LYTE® assay technology.[11] The assay is based on fluorescence resonance energy transfer (FRET). […] The TR-FRET-based LANCE Ultra assay (Perkin Elmer) was used to determine IC50 values for various CSF1R inhibitors. Kinase activity and inhibition in this assay was measured as […]
MEASURED QUANTITY: pIC50
Numbers only, as −log10 of the molar value.

q: Short answer please: pIC50, CSF1R (Homo sapiens), entry CN(Cc1ccccc1)c1ccnc2[nH]c(-c3ccc(CO)cc3)cc12
a: 6.98
